Entries with reported IC50 on full length MPS1 (Homo sapiens (Human), UniProt P33981)
Sequence (P33981 whole entry): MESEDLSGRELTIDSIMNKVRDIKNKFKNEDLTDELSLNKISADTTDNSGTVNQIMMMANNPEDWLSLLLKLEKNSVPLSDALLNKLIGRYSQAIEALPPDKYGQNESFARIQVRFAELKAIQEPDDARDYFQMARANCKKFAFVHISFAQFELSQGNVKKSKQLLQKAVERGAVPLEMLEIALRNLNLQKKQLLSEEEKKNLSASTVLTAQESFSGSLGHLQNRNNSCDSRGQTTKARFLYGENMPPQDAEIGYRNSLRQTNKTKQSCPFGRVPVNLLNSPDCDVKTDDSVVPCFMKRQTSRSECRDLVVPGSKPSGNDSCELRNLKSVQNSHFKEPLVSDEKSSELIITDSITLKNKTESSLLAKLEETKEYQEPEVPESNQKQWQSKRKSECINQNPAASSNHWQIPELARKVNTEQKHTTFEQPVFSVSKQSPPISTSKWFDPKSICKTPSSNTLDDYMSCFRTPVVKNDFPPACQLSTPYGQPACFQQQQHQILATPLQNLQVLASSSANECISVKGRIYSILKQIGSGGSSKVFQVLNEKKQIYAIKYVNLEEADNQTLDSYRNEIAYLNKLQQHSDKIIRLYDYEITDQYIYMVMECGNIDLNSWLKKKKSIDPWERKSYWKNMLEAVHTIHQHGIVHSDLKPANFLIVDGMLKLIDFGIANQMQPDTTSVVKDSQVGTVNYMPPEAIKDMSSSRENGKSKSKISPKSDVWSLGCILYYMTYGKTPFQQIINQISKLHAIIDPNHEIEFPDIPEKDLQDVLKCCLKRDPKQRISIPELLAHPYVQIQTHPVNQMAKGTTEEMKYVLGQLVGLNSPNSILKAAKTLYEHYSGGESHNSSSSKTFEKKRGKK
observed property: IC50 (nM)

Use these answered entries as a reference point.
>>> value("COc1cc(N2CCCCC2)ccc1Nc1ncc2ccnc(NCC(C)(C)C)c2n1 [Example 171]")
65
>>> value("COc1cc(-c2cnc(C)n2C)ccc1Nc1cc2c(-c3cnn(C)c3)cccc2cn1 [Example 10]")
6
>>> value("COc1cc(-c2cnn(C)c2)ccc1Nc1ncc2ccnc(N3CC(OC)C3)c2n1 [Example 67]")
10
>>> value("COc1cc(-c2cnn(C)c2)ccc1Nc1ncc2ccnc(N3CCCC(CO)C3)c2n1 (centres unmarked) [Example 134]")
4
>>> value("COc1cc(-c2cn(C)nc2C)ccc1Nc1ncc2ccnc(NCC(C)(C)OC)c2n1 [Example 190]")
3
>>> value("COc1cc(-c2nncn2C)ccc1Nc1ncc2c(C)cnc(NCC(C)(C)C)c2n1 [Example 151]")
2

A = COc1cc(N2CCC(C(=O)N3CCOCC3)CC2)ccc1Nc1ncc2ccnc(NCC(C)(C)C)c2n1 [Example 172]
B = COc1cc(-c2cnn(C)c2)ccc1Nc1ncc2ccnc(NCC3(O)CC3)c2n1 [Example 112]
Query block: Smaller IC50 value? Options are A and B Choose, then provide that item's label.
Result block: B

I = COc1cc(-c2nncn2C)ccc1Nc1ncc2c(C)cnc(NCC(C)(C)OC)c2n1 [Example 150]
II = Cn1cc(-c2ccc(Nc3cc4c(-c5cnn(C)c5)cccc4cn3)c(Cl)c2)cn1 [Example 23]
Query block: Smaller IC50 value? Options are I and II Choose, then provide that item's label.
Result block: I

1 = COc1cc(-c2cnn(C)c2)ccc1Nc1ncc2ccnc(NCCO)c2n1 [Example 126]
2 = COc1cc(-c2cnn(C)c2)ccc1Nc1ncc2ccnc(Cl)c2n1 [Example 94]
Query block: // pick larger IC50 from pair: 1 vs 2 Choose, then provide that item's label.
Result block: 2

---

pIC50: −log10 of the molar value.
Entries with reported pIC50 on full length MPS1 (Homo sapiens (Human), UniProt P33981)
observed property: pIC50

>>> value("COc1cc(N2CCN(C)CC2)ccc1Nc1ncc2ccnc(NCC(C)(C)C)c2n1")
8.40
>>> value("COc1cc(N2CCN(S(C)(=O)=O)CC2)ccc1Nc1ncc2ccnc(NCC(C)(C)C)c2n1")
8.52
>>> value("COc1cc(-c2cnc(C)n2C)ccc1Nc1ncc2ccnc(NCC(C)(C)C)c2n1")
8.15
>>> value("COc1cc(-c2nnnn2C)ccc1Nc1ncc2ccnc(NCC(C)(C)OC)c2n1")
8.70
>>> value("COc1cc(-c2cnn(C)c2)ccc1Nc1ncc2ccnc(NCC3CCO3)c2n1 (stereo not shown)")
8.10

P = COc1cc(-c2cnn(C)c2)ccc1Nc1ncc2ccnc(N3CCC(O)C3)c2n1 (stereo not shown)
Q = COc1cc(-c2cnn(C)c2C)ccc1Nc1ncc2ccnc(NCC(C)(C)OC)c2n1
R = COc1cc(-c2cnn(C)c2)ccc1Nc1cc2c(NC3CCCCC3)nccc2cn1
Query block: Arrange these molecules by their pIC50, starting with the largest number. The response must list the labels following the requested ordering.
Result block: Q, P, R
(Q: 8.70, P: 8.22, R: 7.25)

P = COc1cc(-c2cnn(C)c2C)ccc1Nc1ncc2ccnc(NCC3(C)CCOC3)c2n1 (stereo not shown)
Q = COc1cc(-c2cnn(C)c2)ccc1Nc1ncc2ccnc(N3CCC(OC)CC3)c2n1
Query block: // pick larger pIC50 from pair: P vs Q Choose, then provide that item's label.
Result block: P
(P: 8.52, Q: 8.10)
